tested on: serotonin (5-HT) uptake by rat brain synaptosome; test: Serotonin (5-HT) uptake inhibitory activity by rat brain synaptosome; type: biochemical; conditions: test compound 300 nM, tritium labeled 5-HT 8 nM, 10 minutes uptake at 37° C.
Serotonin uptake inhibitory ratio (%) (300 nM) listing for selected molecules.
PARAMETER_MEASURED: Serotonin uptake inhibitory ratio (%) (300 nM)

- SMI: "CC(=O)Nc1cc(OCCCN2CCN(c3cccc4sccc34)CC2)n(C)n1"
  OBSERVED_VALUE: 69.9
- SMI: "COc1cc(N2CCN(C(C)=O)CC2=O)cc(C)c1OCCCN1CCN(c2cccc3sccc23)CC1"
  OBSERVED_VALUE: 82.3
- SMI: "COc1cc(N(C)C)cc(C)c1OCCCN1CCN(c2cccc3sccc23)CC1.Cl"
  OBSERVED_VALUE: 95.3
- SMI: "COc1cc(NC(=O)CNC(=O)OC(C)(C)C)cc(C)c1OCCCN1CCN(c2cccc3sccc23)CC1"
  OBSERVED_VALUE: 97.2
- SMI: "COc1cc(N2CCOC2=O)cc(CO)c1OCCCN1CCN(c2cccc3sccc23)CC1"
  OBSERVED_VALUE: 94.4
- SMI: "CN(C)C(=O)c1csc(OCCCN2CCN(c3cccc4sccc34)CC2)n1"
  OBSERVED_VALUE: 59.3
- SMI: "COc1cc(NC(=O)CN)cc(C)c1OCCCN1CCN(c2cccc3sccc23)CC1"
  OBSERVED_VALUE: 97.5
- SMI: "COC(=O)N1CCN(c2cc(C)c(OCCCN3CCN(c4cccc5sccc45)CC3)c(OC)c2)C(=O)C1"
  OBSERVED_VALUE: 95.6
- SMI: "CN(C)C(=O)N1CCC(OCCCN2CCN(c3cccc4sccc34)CC2)CC1"
  OBSERVED_VALUE: 38.5
- SMI: "CNc1cc(C)c(OCCCN2CCN(c3cccc4sccc34)CC2)c(OC)c1.Cl"
  OBSERVED_VALUE: 95.2
- SMI: "COc1cc(C(=O)NCC(OC)OC)cc(C)c1OCCCN1CCN(c2cccc3sccc23)CC1"
  OBSERVED_VALUE: 96.6
- SMI: "COc1cc(N2CCN(C(C)=O)CC2)cc(C)c1OCCCN1CCN(c2cccc3sccc23)CC1"
  OBSERVED_VALUE: 96.3
- SMI: "COC(=O)N1CCN(c2cc(CO)c(OCCCN3CCN(c4cccc5sccc45)CC3)c(OC)c2)CC1"
  OBSERVED_VALUE: 97.1
- SMI: "COc1cc(N2CCCCC2)cc(C)c1OCCCN1CCN(c2cccc3sccc23)CC1"
  OBSERVED_VALUE: 85.0
- SMI: "COC(=O)N1CCN(c2cc(C=O)c(OCCCN3CCN(c4cccc5sccc45)CC3)c(OC)c2)CC1"
  OBSERVED_VALUE: 98.6
- SMI: "COc1cc(NC(=O)CNC(C)=O)cc(C)c1OCCCN1CCN(c2cccc3sccc23)CC1"
  OBSERVED_VALUE: 97.5
- SMI: "CN(C)c1cc(OCCCCN2CCN(c3cccc4sccc34)CC2)n(C)n1"
  OBSERVED_VALUE: 67.2
- SMI: "COc1cc(N2CCCC2)cc(C)c1OCCCN1CCN(c2cccc3sccc23)CC1"
  OBSERVED_VALUE: 87.8
